SUBJECT_OF_TEST: h-TRPA1 (Homo sapiens (Human))
Sequence (O75762 whole entry): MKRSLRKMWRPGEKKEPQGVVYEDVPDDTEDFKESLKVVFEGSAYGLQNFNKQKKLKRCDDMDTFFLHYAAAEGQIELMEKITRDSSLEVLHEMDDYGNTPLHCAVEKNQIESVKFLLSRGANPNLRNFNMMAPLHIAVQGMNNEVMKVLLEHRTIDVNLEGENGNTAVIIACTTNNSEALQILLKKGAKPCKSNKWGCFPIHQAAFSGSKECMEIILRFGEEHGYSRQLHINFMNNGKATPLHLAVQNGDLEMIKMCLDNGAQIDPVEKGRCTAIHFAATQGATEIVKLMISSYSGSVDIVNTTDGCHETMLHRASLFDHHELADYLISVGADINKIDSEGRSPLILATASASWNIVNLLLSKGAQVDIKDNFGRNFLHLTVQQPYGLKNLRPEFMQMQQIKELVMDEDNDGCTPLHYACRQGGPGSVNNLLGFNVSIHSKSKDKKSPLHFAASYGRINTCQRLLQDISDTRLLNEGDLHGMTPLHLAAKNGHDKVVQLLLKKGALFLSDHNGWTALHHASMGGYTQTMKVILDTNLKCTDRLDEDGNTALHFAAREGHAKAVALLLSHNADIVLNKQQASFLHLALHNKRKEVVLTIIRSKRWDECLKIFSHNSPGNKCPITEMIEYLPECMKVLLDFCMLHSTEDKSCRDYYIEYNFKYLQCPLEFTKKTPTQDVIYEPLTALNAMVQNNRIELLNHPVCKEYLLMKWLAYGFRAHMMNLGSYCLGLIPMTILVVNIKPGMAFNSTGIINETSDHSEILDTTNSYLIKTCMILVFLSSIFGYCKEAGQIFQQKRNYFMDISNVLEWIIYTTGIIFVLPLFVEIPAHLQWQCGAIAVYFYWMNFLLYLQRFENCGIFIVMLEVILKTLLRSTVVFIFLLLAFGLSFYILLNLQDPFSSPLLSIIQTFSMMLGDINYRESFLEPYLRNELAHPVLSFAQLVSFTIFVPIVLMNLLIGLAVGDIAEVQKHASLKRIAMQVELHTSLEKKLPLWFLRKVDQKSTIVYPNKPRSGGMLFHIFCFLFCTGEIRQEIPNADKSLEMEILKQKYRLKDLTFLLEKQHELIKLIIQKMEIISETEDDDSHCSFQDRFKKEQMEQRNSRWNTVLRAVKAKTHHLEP
ASSAY_INFO: Dose response calcium flux (FLIPR) assay, ChanTest hTRPA1-CHO stably transfected cell line, cinnamaldehyde agonist
PARTICULARS: CHO-K1 Tet-On TRPA1 cells, calcium flux, 100 uM cinnamaldehyde
Reported pIC50 is given for each of the following molecules.
Note: pIC50 values are expressed as the negative base-10 logarithm of concentration in M.

Please review the following examples before continuing.
INSERT INTO assay_data (molecule, measured) VALUES
  ('CC(C)Nc1c(-c2cccc(Cl)c2)nc2ccc(Br)cn12 [Example 1]', 6.88),
  ('Cc1cc2nc(-c3cccc(Cl)c3)c(NC(C)(C)C)n2cc1Br [Example 9]', 6.64);

Turning now to a further record.
Query block: Request the reported pIC50 associated with Clc1cccc(-c2nc3ccc(Cl)cn3c2NC2CC2)c1 [Example 7]
Result block: 5.80

Taken from patent US9394304B2.
